- PROCEDURE_SUMMARY: decreased DLD-1 cellular survival, CellTiter-Glo luminescent readout, NPC compound collection, primary HTS (AID 1117346)
- CONDITIONS: DLD-1 viability, CellTiter-Glo luminescence; at 20 µM (top of the series)
Calls of active or inactive are those of the source.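 How the source made its calls: active means compounds that lower survival of DLD-1 colon cancer cells in the luminescence readout, no cutoff given; inactive means the rest.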
Outcome (select one): true (1) = active, false (0) = inactive

## Input Outcome? CN1[C@@H]2CC(OC(=O)[C@H](CO)c3ccccc3)C[C@H]1[C@@H]1O[C@@H]12 (some centres undefined)
## Output false (0)

## Input Test call, this molecule: CC(=O)Oc1cc(C(F)(F)F)ccc1C(=O)O
## Output false (0)

## Input Lab log entry: CCCCCCCCCCCCCCCC[N+](C)(C)CCN(Cc1ccc(OC)cc1)c1ncccn1 — outcome as called in the assay?
## Output true (1)

## Input Outcome logged for O=C(O)Cc1ccc(OCCNC[C@H](O)c2ccccc2)cc1 in this assay:
## Output false (0)

## Input Kindly provide the recorded test outcome for the following molecule: CC(C)CCCC(C)N (centres undefined)
## Output true (1)

## Input I would be grateful if you could indicate the recorded call for O=C(O)c1cccc(-c2noc(-c3ccccc3F)n2)c1 .
## Output false (0)

## Input Short answer needed: outcome of this test for OCCOCCN1CCN(C(c2ccccc2)c2ccc(Cl)cc2)CC1 (centres undefined) ?
## Output false (0)

## Input // return assay outcome for CC(=O)N(CC(O)CO)c1c(I)c(C(=O)NCC(O)CO)c(I)c(C(=O)NCC(O)CO)c1I (centres undefined)
## Output false (0)

## Input Returns: the outcome recorded for CC[C@H](C)[C@H](N)C(=O)O in this assay.
## Output false (0)

## Input Test call, this molecule: C(=C\c1ccccc1)/CN1CCN(C(c2ccccc2)c2ccccc2)CC1
## Output true (1)

## Input // param item: CN(CCCCCCCCCCN(C)C(=O)Oc1cccc([N+](C)(C)C)c1)C(=O)Oc1cccc([N+](C)(C)C)c1 ; yields the recorded call
## Output false (0)

## Input I would be grateful if you could indicate the recorded call for O=C1NC(=O)[C@@]2(CCOc3ccc(F)cc32)N1 .
## Output false (0)

## Input State the result this test recorded for CC(C)Nc1cccnc1N1CCN(C(=O)c2cc3cc(NS(C)(=O)=O)ccc3[nH]2)CC1 .
## Output false (0)

## Input Outcome logged for NCCCC(O)(P(=O)(O)O)P(=O)(O)O in this assay:
## Output false (0)

## Input Short answer needed: outcome of this test for CC(C)C[C@H](NC(=O)[C@H](CCc1ccccc1)NC(=O)CN1CCOCC1)C(=O)N[C@@H](Cc1ccccc1)C(=O)N[C@@H](CC(C)C)C(=O)[C@@]1(C)CO1 ?
## Output true (1)

## Input Please share the test call associated with COc1c2occc2cc2ccc(=O)oc12 .
## Output false (0)

## Input Dear all, I need the recorded test outcome for NC(=O)C1(N2CCCCC2)CCN(CCCC(=O)c2ccc(F)cc2)CC1 , thank you.
## Output false (0)

## Input // outcome(item) with item = O=C(O)c1cc(-c2ccccc2)nc2ccccc12
## Output false (0)

## Input Could you please tell me the result logged for CCCCC(CC)COC(=O)c1ccccc1O (centres undefined) in this assay?
## Output false (0)

## Input Please state the recorded outcome for this molecule: CC(=O)SC[C@@H](C)C(=O)N1CCC[C@H]1C(=O)N[C@@H](Cc1ccccc1)C(=O)O
## Output false (0)

## Input Hi team, can someone confirm the assay call for O=C(O)c1cc(N=Nc2ccc(O)c(C(=O)O)c2)ccc1O ?
## Output false (0)

## Input For CNC1CCCN(c2c(F)cc3c(=O)c(C(=O)O)cn(C4CC4)c3c2OC)C1 (centres undefined) , what call appears in the results of this test?
## Output false (0)

## Input // return assay outcome for O=c1[nH]c2cc(C(F)(F)F)c(N3CCOCC3)cc2n(CP(=O)(O)O)c1=O
## Output false (0)

## Input Write down the call the test reported for this molecule. Item: O=C1c2ccccc2S(=O)(=O)N1CCCCN1CCN(c2ncccn2)CC1
## Output false (0)

## Input Given O=P(O)(O)OC(CO)CO , state the outcome it received in this test.
## Output false (0)

## Input Answer briefly: the call reported for O=S(=O)(O)c1cc(I)c(O)c2ncccc12 in this assay.
## Output true (1)

## Input Called result for COc1ccc(Cc2cnc(N)nc2N)cc1OC
## Output false (0)

## Input Assay result, entry CC=CC1=C(C(=O)O)N2C(=O)[C@@H](NC(=O)[C@H](N)c3ccc(O)cc3)[C@H]2SC1 — outcome?
## Output false (0)

## Input Outcome logged for Cc1ncc(C[n+]2csc(CCO)c2C)c(N)n1 in this assay:
## Output false (0)

## Input What is the recorded call for this molecule in the test? CNCCc1ccccn1
## Output false (0)

## Input # fetch the recorded call for CN(C)CCOC1=Cc2ccccc2Sc2ccc(Cl)cc21 here
## Output true (1)

## Input Recorded test outcome, item O=S(=O)(O)Oc1ccc(C(c2ccc(OS(=O)(=O)O)cc2)c2ccccn2)cc1
## Output true (1)

## Input Status in this test for CC(=O)OCC(=O)[C@@]1(O)CCC2C3CCC4=CC(=O)CC[C@]4(C)C3[C@@H](O)C[C@@]21C (some centres undefined) ?
## Output false (0)

## Input So what was the verdict on C[C@]12CC[C@@H]3c4ccc(O)cc4CC[C@H]3[C@@H]1CC[C@@H]2OC(=O)CCC1CCCC1 in this test?
## Output false (0)

## Input What did this assay record as the result for O=C(CCCN1CCC(O)(c2ccc(Cl)cc2)CC1)c1ccc(F)cc1 ?
## Output false (0)

## Input // param item: CCN(CC)CC(=O)Nc1c(C)cc(C)cc1C ; yields the recorded call
## Output true (1)

## Input Query: recorded result category for O=c1cc(O)c(Cl)c[nH]1 in this test
## Output false (0)

## Input For COc1ccc(C=CC(=O)Nc2ccccc2C(=O)O)cc1OC , which call appears in the assay record?
## Output false (0)

## Input # fetch the recorded call for C[C@]12CC[C@H]3[C@@H](CCC4=CC(=O)CC[C@@]43C)[C@@H]1CC[C@@H]2C(=O)CO here
## Output false (0)

## Input Recorded call for COc1cc(Nc2c(C#N)cnc3cc(OCCCN4CCN(C)CC4)c(OC)cc23)c(Cl)cc1Cl ?
## Output true (1)

## Input Hi team, can someone confirm the assay call for CC1(C)Oc2ccc(C#N)cc2[C@@H](N2CCCC2=O)[C@@H]1O ?
## Output false (0)

## Input Assay outcome for CN(C)CCN(Cc1ccc(Cl)cc1)c1ccccn1 : what was it?
## Output false (0)

## Input Just curious, what result did CC(=O)Oc1ccc2c(c1)CC[C@@H]1[C@@H]2CC[C@]2(C)[C@@H](O)CC[C@@H]12 get here?
## Output false (0)

## Input Look up the recorded call for CC(C)(Oc1ccc(C2CC2(Cl)Cl)cc1)C(=O)O (centres undefined) in this test.
## Output false (0)

###

- PROCEDURE_SUMMARY: JHH-DIPG-1 glioma cell viability, MIPE5.0 library, CellTiter-Glo luminescence, qHTS (AID 1347067);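 further: cells exposed to compound for 48 hours before readout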
- CONDITIONS: JHH-DIPG-1 glioma viability, CellTiter-Glo ATP luminescence
Inconclusive results are not listed. The source made the active and inactive calls. No cut-off is given here; in the data, nearly all actives have AC50 up to about 26 µM.
# output must be one of active, inactive

## Input Given Cc1cc2c(cc1CC(=O)c1sccc1S(=O)(=O)Nc1onc(C)c1Cl)OCO2 , state the outcome it received in this test.
## Output active

## Input Tell me the recorded outcome of this test for CCCCc1oc2ccc(NS(C)(=O)=O)cc2c1C(=O)c1ccc(OCCCN(CCCC)CCCC)cc1 .
## Output active

## Input Fill in: this test's call for CC1(C)[C@@H](O)CC[C@]2(C)[C@H]3C(=O)C=C4[C@@H]5C[C@@](C)(C(=O)O)CC[C@]5(C)CC[C@@]4(C)[C@]3(C)CC[C@@H]12 is ___
## Output inactive

## Input Per the records of this test, what outcome belongs to O=C1C[C@@H](c2ccc(O)cc2)Oc2cc(O)cc(O)c21 ?
## Output inactive

## Input For C=C[C@H]1CN2CC[C@H]1C[C@H]2[C@H](O)c1ccnc2ccc(OC)cc12 , which call appears in the assay record?
## Output inactive

## Input Status in this test for C[C@@H]1[C@H](O)[C@@H](C)/C=C/C=C/C=C/C=C/C=C/C=C/C=C/[C@H](O[C@@H]2O[C@H](C)[C@@H](O)[C@H](N)[C@@H]2O)C[C@@H]2O[C@](O)(C[C@@H](O)C[C@@H](O)[C@H](O)CC[C@@H](O)C[C@@H](O)CC(=O)O[C@H]1C)C[C@H](O)[C@H]2C(=O)O ?
## Output inactive

## Input Please state the recorded outcome for this molecule: NC(=O)c1cccnc1
## Output inactive

## Input So what was the verdict on COc1cc(CNC(=O)CCCC/C=C/C(C)C)ccc1O in this test?
## Output inactive

## Input What did this assay record as the result for CCCC(CCC)C(=O)O ?
## Output inactive

## Input // outcome(item) with item = Clc1ccc(Cn2c(CN3CCCC3)nc3ccccc32)cc1
## Output inactive

## Input How did this test come out for CCOC(=O)[C@H](CCc1ccccc1)N[C@H]1CS[C@H](c2cccs2)CN(CC(=O)O)C1=O ?
## Output inactive

## Input Write down the call the test reported for this molecule. Item: O=C(Nc1cc(C(F)(F)F)cc(C(F)(F)F)c1)c1cc(Cl)ccc1O
## Output active

## Input # outcome recorded in this test, key = COc1ccc(/C=C/C(=O)Nc2ccccc2C(=O)O)cc1OC
## Output inactive

## Input Just curious, what result did O=C(Nc1ccc(S(=O)(=O)N2CCOCC2)cc1)c1cc(Cl)ccc1NS(=O)(=O)c1ccc(Cl)s1 get here?
## Output inactive

## Input For this molecule, state the assay outcome: C[C@]12CCC(=O)C=C1[C@@H]1C[C@@H]1[C@H]1[C@@H]3[C@@H]4C[C@@H]4[C@@]4(CCC(=O)O4)[C@@]3(C)CC[C@@H]12
## Output inactive

## Input Could you kindly confirm the outcome this assay logged for Nc1ncnc2c1ncn2[C@@H]1O[C@H](CO)[C@@H](O)[C@@H]1O ?
## Output inactive

## Input For Nc1ccn(C[C@@H](CO)OCP(=O)(O)O)c(=O)n1 , which call appears in the assay record?
## Output inactive

## Input What classification did CNC(=O)c1ccccc1Sc1ccc2c(/C=C/c3ccccn3)n[nH]c2c1 end up with in this test?
## Output active

## Input What is the recorded call for this molecule in the test? COc1cc2c(cc1OC)[C@@H]1C(=O)c3ccc4c(c3O[C@@H]1CO2)C=CC(C)(C)O4
## Output active

## Input Hello, I am checking results. What call was entered for O=C(O)CCn1c2c(c3ccccc31)C[C@H](NS(=O)(=O)c1ccc(F)cc1)CC2 ?
## Output inactive

## Input For CCC[C@@H]1C[C@@H](C(=O)N[C@@H]([C@H]2O[C@H](SC)[C@H](O)[C@@H](O)[C@H]2O)[C@H](C)Cl)N(C)C1 , what call appears in the results of this test?
## Output inactive

## Input Dear colleague, could you share the recorded outcome for CC(C)(S)[C@@H](N)C(=O)O when you have a moment?
## Output inactive

## Input What did the test return for Nc1ccn([C@@H]2O[C@H](CO)[C@@H](O)[C@H]2O)c(=O)n1 ?
## Output inactive

## Input Which outcome was entered for the molecule Clc1cccc(C(c2ccc3nc[nH]c3c2)n2ccnc2)c1 (stereo not drawn) in this test?
## Output inactive

## Input Answer briefly: the call reported for COc1ccc2cccc(CCNC(C)=O)c2c1 in this assay.
## Output inactive

## Input Just curious, what result did Cc1oc(=O)oc1CN1CCN(c2cc3c(cc2F)c(=O)c(C(=O)O)c2n3C(C)S2)CC1 (stereo not drawn) get here?
## Output inactive

## Input What is the recorded call for this molecule in the test? CC(=O)O[C@@]12CO[C@@H]1C[C@H](O)[C@@]1(C)C(=O)[C@H](O)C3=C(C)[C@@H](OC(=O)[C@H](O)[C@@H](NC(=O)OC(C)(C)C)c4ccccc4)C[C@@](O)([C@@H](OC(=O)c4ccccc4)[C@H]21)C3(C)C
## Output inactive

## Input Record request — test call for NCCCC(O)(P(=O)(O)O)P(=O)(O)O
## Output inactive

## Input Look up the recorded call for O=c1[nH]c(=O)n([C@H]2C[C@H](O)[C@@H](CO)O2)cc1C(F)(F)F in this test.
## Output inactive

## Input // param item: Cc1[nH]c(=O)c(C#N)cc1-c1ccc2nccn2c1 ; yields the recorded call
## Output inactive

## Input Status in this test for CCCCCCCCCCCCCCCCCCCCCCO ?
## Output inactive

## Input For this molecule, state the assay outcome: CCOC(=O)C1=C(O)C(=O)N(Cc2ccccc2)C1
## Output inactive

## Input Recorded test call requested for O=C(/C=C/C=C/c1ccc2c(c1)OCO2)N1CCCCC1
## Output inactive

## Input GET /call?item= CC(C(=O)O)c1ccc(-c2ccccc2)c(F)c1 (stereo not drawn) returns the recorded outcome of this test.
## Output inactive

## Input Hi, sorry to bother you, what did the test record for NS(=O)(=O)c1cc(Cl)c(Cl)c(S(N)(=O)=O)c1 ?
## Output inactive

## Input GET /call?item= CSCC[C@H](NC(=O)[C@H](Cc1c[nH]c2ccccc12)NC(=O)CCNC(=O)OC(C)(C)C)C(=O)N[C@@H](CC(=O)O)C(=O)N[C@@H](Cc1ccccc1)C(N)=O returns the recorded outcome of this test.
## Output inactive

## Input Which outcome did this test record for the molecule CCCS(=O)c1ccc2nc(NC(=O)OC)[nH]c2c1 (stereo not drawn) ?
## Output inactive

## Input Kindly provide the recorded test outcome for the following molecule: O=C(NCC1CCCCN1)c1cc(OCC(F)(F)F)ccc1OCC(F)(F)F (stereo not drawn)
## Output inactive
